Tested on: HIV-1 single-round infectious reporter virus
MEASUREMENT PROTOCOL: microbe, parasite or virus in culture
Type: cell-based
REPORTED CONDITIONS: Human immunodeficiency virus 1, HeLa-CD4/CCR5, 72 h, read-out: EC50 Group from Table 1
Description: […]
MEASUREMENT LABEL: EC50

> print(dat)
                                   molecule  measurement
1  O=C(NCC1CCCN1C(=O)C(=O)c1c[nH]c2ccccc12)c1ccccc1 (stereo not drawn)    < 1000 nM
2  O=C(NC[C@@H]1CCN(C(=O)C(=O)c2c[nH]c3c(-c4cc[nH]n4)ccc(F)c23)C1)c1ccccc1    < 1000 nM

Please state, for each entry, its recorded EC50.
1. CC(C)(C)OC(=O)NCC1CCN(C(=O)C(=O)c2c[nH]c3cccc(F)c23)C1 (stereo not drawn)
2. O=C(NCC1CCN(C(=O)c2ccccc2)C1)C(=O)c1c[nH]c2cccc(F)c12 (stereo not drawn)
3. O=C(NCC1CCN(C(=O)c2ccccc2)C1)C(=O)c1c[nH]c2ncccc12 (stereo not drawn)
4. CNC(=O)c1ccc(F)c2c(C(=O)C(=O)NCC3CCN(C(=O)c4ccccc4)C3)c[nH]c12 (stereo not drawn)

["> 5000 nM", "< 1000 nM", "> 5000 nM", "< 1000 nM"]

###

System: HIV-1 single-round infectious reporter virus
MEASUREMENT PROTOCOL: microbe, parasite or virus in culture
Type: cell-based
REPORTED CONDITIONS: Human immunodeficiency virus 1, HeLa-CD4/CCR5, 72 h, read-out: EC50 Group from Table 1
MEASUREMENT LABEL: EC50

Known results for compounds:
> print(dat)
                                   compound  measurement
1  O=C(NC[C@@H]1CCN(C(=O)C(=O)c2c[nH]c3c(Br)ccc(F)c23)C1)c1ccccc1 [Example 9]       < 1 µM
2  O=C(NCC1CCN(C(=O)C(=O)c2c[nH]c3cccc(F)c23)C1)c1ccccc1 (centres unmarked) [Example 3]       < 1 µM
3  O=C(NC[C@H]1CCN(C(=O)C(=O)c2c[nH]c3c(-c4cc[nH]n4)ccc(F)c23)C1)c1ccccc1 [Example 11]       < 1 µM
4  O=C(NC[C@H]1CCN(C(=O)C(=O)c2c[nH]c3c(Br)ccc(F)c23)C1)c1ccccc1 [Example 10]       < 1 µM
5  O=Cc1ccc(F)c2c(C(=O)C(=O)NCC3CCN(C(=O)c4ccccc4)C3)c[nH]c12 (centres unmarked) [Example 5]    1 to 5 µM
6  CN(C(=O)c1c[nH]c2ccccc12)C1CCN(C(=O)c2ccccc2)C1 (centres unmarked) [Example 14]       > 5 µM
7  O=C(NCC1CCN(C(=O)C(=O)c2cn(C(=O)c3ccccc3)c3cccc(F)c23)C1)c1ccccc1 (centres unmarked) [Example 4]       < 1 µM

Now for another entry.
Looking for the measured EC50 of O=C(NCC1CCN(C(=O)c2ccccc2)C1)C(=O)c1c[nH]c2c(C(=O)O)ccc(F)c12 (centres unmarked) [Example 7] , can you help?
1 to 5 µM
